// provenance: ChEMBL document CHEMBL3507680

- protocol: Human HepG2 cell viability assay in 384 well format
- Assay type: toxicity, cell-based
- Parameters: dose 125 nL, time 70.5 hour; concentration not given beside the values
- details: HepG2 cells, read-out: Inhibition
endpoint: cytotoxicity at 70.5 h (%)
Answer with a number only, understood to be in %.

The examples below pair each entry with its known result.
compound: CC(Cn1cccn1)NCC(=O)NC1CCOCC1 (stereo not drawn)
unit name: %
cytotoxicity at 70.5 h: 6.94

compound: COC(=O)c1ccc2nc(CO[C@H]3CN(CC4CC4)C[C@H]3F)[nH]c2c1
unit name: %
cytotoxicity at 70.5 h: 1.07

compound: CCCN1CC2(CCN(c3ncc(F)cn3)CC2)CC1C(=O)O (stereo not drawn)
unit name: %
cytotoxicity at 70.5 h: -7.12

compound: CC(C)OCCCNC(=O)Nc1cccc2ncccc12
unit name: %
cytotoxicity at 70.5 h: -2.69

compound: Cc1ccc(N2CC[C@H]3CO[C@H](CN(C)Cc4ccco4)[C@H]3C2)nn1
unit name: %
cytotoxicity at 70.5 h: -0.777

compound: O=C(COc1coc(CN2CCCCC2)cc1=O)Nc1cccc(Cl)c1
unit name: %
cytotoxicity at 70.5 h: -7.03

**Q:** Which value of cytotoxicity at 70.5 h has been reported for `Cc1ccc(S(=O)(=O)N2CCN(CCC#N)CC2)s1` in the records?
**A:** 7.61

**Q:** // next record `Cc1ccc(N(CC(=O)NCc2nnc3n2CCC3)S(C)(=O)=O)cc1`
**A:** 5.02

**Q:** // next record `CCN(CC(=O)NCCc1nc(C)no1)Cc1ccc(Cl)cc1`
**A:** -2.02

**Q:** // next record `CCOC(=O)c1ccccc1NC(=O)CN(C)Cc1ccccc1Cl`
**A:** 3.31

**Q:** // next record `CC(=O)N1CCC2(CCCN2Cc2cnn(C)c2)CC1`
**A:** -10

**Q:** // next record `N#Cc1ccc(C(=O)N2CC[C@H]3[C@H]2CCN3CC2CCOCC2)cc1`
**A:** 12.2

**Q:** // next record `O=C(c1ccco1)N1CCC2(CC1)C(=O)NCCN2CC1CC1`
**A:** -26.8

**Q:** // next record `O=C(C1CC(F)(F)C1)N1C[C@@H]2CN(Cc3ccoc3)CCO[C@@H]2C1`
**A:** -3.45

**Q:** // next record `CC(C)N1CCC2(CCNCC2)C1=O`
**A:** -13

**Q:** // next record CCCc1n[nH]c(C2CN(C(=O)CCCn3ccnc3)CCO2)n1 (stereo not drawn)
**A:** -0.218

**Q:** // next record CNS(=O)(=O)c1cc(C(=O)NC2COc3ccccc32)cc(C)c1C (stereo not drawn)
**A:** -13.5

**Q:** // next record CCc1nnc(CN2CCOC(Cn3cc(C)cn3)C2)o1 (stereo not drawn)
**A:** -6.6
